Test system: Semliki Forest virus
Assay Text: Antiviral activity against semliki forest virus (SFV) in Vero cell culture lines
Type: functional
Measure: MIC

1) Nc1ncnc2c1ccn2[C@@H]1O[C@H](CO)[C@@H](O)[C@H]1O = > 0.1 µg/mL
2) COC(=O)C(CCSC[C@@H]1C[C@@H](O)[C@H](n2ccc3c(N)ncnc32)O1)NC(=O)C(F)(F)F (some centres undefined) = > 400 µg/mL
3) Nc1ncnc2c([C@H]3C[C@@H](O)[C@@H](CO)O3)n[nH]c12 = > 400 µg/mL
4) Nc1ncnc2c(C3O[C@H](CSCCC(N)C(=O)O)[C@@H](O)[C@H]3O)n[nH]c12 (some centres undefined) = > 100 µg/mL
5) NC(=O)c1ncn([C@@H]2O[C@H](CO)[C@@H](O)[C@H]2O)n1 = 200 µg/mL
6) Nc1nccc2c1ncn2[C@H]1CC[C@@H](CO)O1 = > 100 µg/mL
7) Nc1nccc2c1ncn2[C@@H]1O[C@H](CSCCC(N)C(=O)O)C[C@H]1O (some centres undefined) = > 400 µg/mL
8) Nc1ncnc2c1ncn2[C@H]1C[C@H](O)[C@@H](CO)O1 = > 200 µg/mL
9) CCCOC(=O)C(CCSC[C@H]1OC(n2ccc3c(N)ncnc32)[C@H](O)[C@@H]1O)NC(C)=O (some centres undefined) = > 40 µg/mL

---

System: Semliki Forest virus
Assay Text: Antiviral activity against semliki forest virus (SFV) in Vero cell culture lines
Format: functional
Each item that follows carries a reported MIC.
Measure: MIC

1. CC(C)(C)C(=O)OCn1nc([C@@H]2O[C@H](CO)[C@@H](O)[C@H]2O)c2ncnc(N)c21 = > 10 µg/mL
2. CC(C)(C)C(=O)ONC(CCSC[C@H]1OC(n2ccc3c(N)ncnc32)[C@H](O)[C@@H]1O)C(=O)OCC[Si](C)(C)C (stereo partly drawn) = > 40 µg/mL
3. CCCOC(=O)C(CCSC[C@H]1OC(n2ccc3c(N)ncnc32)[C@H](O)[C@@H]1O)NC(=O)COC (stereo partly drawn) = > 70 µg/mL
4. Nc1ncnc2c([C@H]3CC[C@@H](CCl)O3)n[nH]c12 = > 400 µg/mL
5. COCC(=O)NC(CCSC[C@H]1OC(n2ccc3c(N)ncnc32)[C@H](O)[C@@H]1O)C(=O)O (stereo partly drawn) = > 400 µg/mL
6. CCCCOC(=O)C(N)CCSC[C@H]1OC(n2ccc3c(N)ncnc32)[C@H](O)[C@@H]1O (stereo partly drawn) = > 200 µg/mL
7. Nc1ncnc2c1ncn2[C@@H]1O[C@H](CSCCC(N)C(=O)O)C[C@H]1O (stereo partly drawn) = > 100 µg/mL
8. CC(C)OC(=O)C(CCSC[C@H]1OC(n2ccc3c(N)ncnc32)[C@H](O)[C@@H]1O)NC(=O)C(F)(F)F (stereo partly drawn) = > 100 µg/mL

---

Below, each entry is listed alongside its reported MIC.
System: Coxsackievirus B4
Assay Text: Antiviral activity against coxsackie B4 in Vero cell culture lines
Format: functional
Test Parameters: Enterovirus B
Measure: MIC (µg/mL)

1) Nc1ncnc2c([C@H]3C[C@@H](O)[C@@H](CO)O3)n[nH]c12 = 300
2) CCCOC(=O)C(N)CCSC[C@H]1OC(n2ccc3c(N)ncnc32)[C@H](O)[C@@H]1O (stereo not given in full) = 70

---

System: Sindbis virus
Assay Text: Antiviral activity against sindbis virus in Vero cell culture lines
Type: functional
Measure: MIC

1. Nc1nccc2c1ncn2[C@@H]1O[C@H](CSCCC(N)C(=O)O)C[C@H]1O (some centres undefined) = > 400 µg/mL
2. COC(=O)C(CCSC[C@@H]1C[C@@H](O)[C@H](n2ccc3c(N)ncnc32)O1)NC(=O)C(F)(F)F (some centres undefined) = > 400 µg/mL
3. Nc1ncnc2c1CCN2[C@@H]1O[C@H](CO)C[C@H]1O = 30 µg/mL
4. CC(C)(C)C(=O)ONC(CCSC[C@H]1OC(n2ccc3c(N)ncnc32)[C@H](O)[C@@H]1O)C(=O)O (some centres undefined) = > 400 µg/mL
5. CCCOC(=O)C(CCSC[C@H]1OC(n2ccc3c(N)ncnc32)[C@H](O)[C@@H]1O)NC(=O)C(F)(F)F (some centres undefined) = 70 µg/mL
6. NC(=O)c1ncn([C@@H]2O[C@H](CO)[C@@H](O)[C@H]2O)n1 [RIBAVIRIN] = 200 µg/mL
7. COC(=O)C(N)CCSC[C@H]1OC(n2ccc3c(N)ncnc32)[C@H](O)[C@@H]1O (some centres undefined) = > 200 µg/mL
8. CCCOC(=O)C(N)CCSC[C@H]1OC(n2ccc3c(N)ncnc32)[C@H](O)[C@@H]1O (some centres undefined) = > 70 µg/mL
9. CC(=O)NC(CCSC[C@H]1OC(n2ccc3c(N)ncnc32)[C@H](O)[C@@H]1O)C(=O)OC(C)C (some centres undefined) = > 100 µg/mL
10. Nc1ncnc2c1ncn2[C@@H]1O[C@H](CSCCC(N)C(=O)O)C[C@H]1O (some centres undefined) = > 200 µg/mL
11. Nc1nccc2c1ncn2[C@H]1CC[C@@H](CO)O1 = > 100 µg/mL
12. CCCCOC(=O)C(N)CCSC[C@H]1OC(n2ccc3c(N)ncnc32)[C@H](O)[C@@H]1O (some centres undefined) = > 200 µg/mL
13. CC(C)OC(=O)C(N)CCSC[C@H]1OC(n2ccc3c(N)ncnc32)[C@H](O)[C@@H]1O (some centres undefined) = > 40 µg/mL
14. COCC(=O)NC(CCSC[C@H]1OC(n2ccc3c(N)ncnc32)[C@H](O)[C@@H]1O)C(=O)OC(C)C (some centres undefined) = > 200 µg/mL

---

Tested on: Human respirovirus 3
Assay Text: Antiviral activity against parainfluenza virus type 3 in Vero cell culture lines
Assay type: functional
The following molecules are shown together with reported MIC values.
Measure: MIC

1) CC(C)(C)C(=O)ONC(CCSC[C@H]1OC(n2ccc3c(N)ncnc32)[C@H](O)[C@@H]1O)C(=O)OCC[Si](C)(C)C (stereo partly drawn) = > 40 mg/L
2) COCC(=O)NC(CCSC[C@H]1OC(n2ccc3c(N)ncnc32)[C@H](O)[C@@H]1O)C(=O)OC(C)C (stereo partly drawn) = > 200 mg/L
3) CC(C)(C)C(=O)OCn1nc([C@@H]2O[C@H](CO)C[C@H]2O)c2ncnc(N)c21 = > 100 mg/L

---

Tested on: Human respirovirus 3
Assay Text: Antiviral activity against parainfluenza virus type 3 in Vero cell culture lines
Format: functional
Measure: MIC (µg/mL)

1) Nc1nccc2c1ncn2[C@@H]1O[C@H](CO)[C@@H](O)[C@H]1O = 0.4
2) Nc1ncnc2c1CCN2[C@@H]1O[C@H](CSCCC(N)C(=O)O)C[C@H]1O (stereo partly drawn) = 100

---

Test system: Coxsackievirus B4
Assay Text: Antiviral activity against coxsackie B4 in Vero cell culture lines
Assay type: functional
Test Parameters: Enterovirus B
Measure: MIC

1) COCC(=O)NC(CCSC[C@H]1OC(n2ccc3c(N)ncnc32)[C@H](O)[C@@H]1O)C(=O)OC(C)C (stereo partly drawn) = > 100 µg/mL
2) Nc1ncnc2c([C@H]3CC[C@@H](CCl)O3)n[nH]c12 = > 200 µg/mL
3) CCCOC(=O)C(CCSC[C@H]1OC(n2ccc3c(N)ncnc32)[C@H](O)[C@@H]1O)NC(=O)C(F)(F)F (stereo partly drawn) = > 150 µg/mL
